B1: 1-phosphatidylinositol 4,5-bisphosphate phosphodiesterase gamma-2, residues 772 to 827; numbered along this chain, P16885 (parent)
chain: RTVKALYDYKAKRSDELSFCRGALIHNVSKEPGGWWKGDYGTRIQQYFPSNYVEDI

# Variants of: B1
# Protocol description: abundance fitness (aPCA) (normalised: wild type 0, dead -1); higher = more abundant; growth selection in yeast, the domain comes from the species named
# Condition details: Homo sapiens
Measured property: abundance fitness
Returns: the value as a bare number; no unit string appended.

Before answering, review these 10 worked examples.
>  <Sequence string>
RTVKALYDYKAKRSDELSFCRLALIHNVSKEPGGWWKGDYGTRIQQYFPSNYVEDI [G22L]

>  <abundance fitness>
-1.14

$$$$
>  <Sequence string>
RTVKALYDYKAKRSDELSFNRGALIHNVSKEPGGWWKGDYGTRIQQYFPSNYVEDI [C20N]

>  <abundance fitness>
-0.037

$$$$
>  <Sequence string>
RTVKALYDYKAKRSNELSFCRGALIHNVSKEPGGWWKGDYGTRIQQYFPSNYVEDI [D15N]

>  <abundance fitness>
-0.048

$$$$
>  <Sequence string>
RTVKALYDYKAKRSDELSFCRGALIHNVSKEPGGWWKGDYGTRVQQYFPSNYVEDI [I44V]

>  <abundance fitness>
0.043

$$$$
>  <Sequence string>
RTVKALYDYKAKRSDELSFCRGNLIHNVSKEPGGWWKGDYGTRIQQYFPSNYVEDI [A23N]

>  <abundance fitness>
-0.131

$$$$
>  <Sequence string>
RTVKALYDYKAKRSDELSFCRGALIHNVSKEPGGWWKGDYGTRIQSYFPSNYVEDI [Q46S]

>  <abundance fitness>
0.054

$$$$
>  <Sequence string>
RTVKLLYDYKAKRSDELSFCRGALIHNVSKEPGGWWKGDYGTRIQQYFPSNYVEDI [A5L]

>  <abundance fitness>
-0.999

$$$$
>  <Sequence string>
RTVKALYDYKAKRSDELSFCRGALIHNVSKEPGGWWKGDYGTRIQQYFPMNYVEDI [S50M]

>  <abundance fitness>
0.071

$$$$
>  <Sequence string>
RTVKALYDYKAKRSDELSFCRGALIHNVSKEPGGWWKGDYGCRIQQYFPSNYVEDI [T42C]

>  <abundance fitness>
-0.227

$$$$
>  <Sequence string>
RTVKALYDYKAKRSDELSFCRGALIHNVSKEPGGWWKGDYGTRQQQYFPSNYVEDI [I44Q]

>  <abundance fitness>
-0.246

$$$$

Measured abundance fitness of RTVKALYDYKAKRSDELSFMRGALIHNVSKEPGGWWKGDYGTRIQQYFPSNYVEDI [C20M] : -0.063

Measured abundance fitness of RTVKALYDYKAKRSDELSFCRGALIHNVSKEPGGWLKGDYGTRIQQYFPSNYVEDI [W36L] : -0.095

Measured abundance fitness of RTVKALYDYFAKRSDELSFCRGALIHNVSKEPGGWWKGDYGTRIQQYFPSNYVEDI [K10F] : -0.333
